Data provenance: patent US10710979B2

Test system: human lung cancer cells H1975
Measurement Notes: Effect of compounds on proliferation of tumor cells (MTT), H1975
Format: cell-based
Setup Conditions: Homo sapiens, NCI-H1975; H1975 cells, 72 hours, MTT
pIC50: −log10 of the molar value.
Parameter: pIC50

For orientation, consider the following solved cases.
| Compound | Parameter | Measured |
| --- | --- | --- |
| C=CC(=O)Nc1cccc(Nc2nc(Nc3ccc(N4CCN(C(=O)C(C)C)CC4)nc3OC)ncc2C(F)(F)F)c1 [ES-141] | pIC50 | 7.26 |
| C=CC(=O)Nc1cccc(Nc2nc(Nc3ccc(N4CCN(C(=O)CC(C)(C)C)CC4)nc3OC)ncc2C(F)(F)F)c1 [ES-138] | pIC50 | 6.60 |
| C=CC(=O)Nc1cccc(Nc2nc(Nc3ccc(N(C)C4CCN(C)C4)nc3OC)ncc2C(F)(F)F)c1 (stereo not shown) [ES-150] | pIC50 | 7.63 |
| C=CC(=O)Nc1cccc(Nc2nc(Nc3ccc(NC4CCN(C(=O)C5COC5)C4)nc3OC)ncc2C(F)(F)F)c1 (stereo not shown) [ES-125] | pIC50 | 6.83 |

(a) C=CC(=O)Nc1cccc(Nc2nc(Nc3ccc(N(C)C4CCN(C(C)=O)C4)nc3OC)ncc2C(F)(F)F)c1 (stereo not shown) [ES-147]
(b) C=CC(=O)Nc1cccc(Nc2nc(Nc3ccc(N4CCNCC4)nc3OC)ncc2C(F)(F)F)c1 [ES-069]
(c) C=CC(=O)Nc1cccc(Nc2nc(Nc3ccc(NC4CCN(C)C4)nc3OC)ncc2C(F)(F)F)c1 (stereo not shown) [ES-146]
List these items ordered by pIC50, big to small. Give your ranking as a list of the labels in the requested order.
c, b, a
(c: 7.34, b: 6.65, a: 6.33)
